- SUBJECT_OF_TEST: rat mGlu3 (Rattus norvegicus (Rat), UniProt P31422)
- Sequence (P31422 23-879): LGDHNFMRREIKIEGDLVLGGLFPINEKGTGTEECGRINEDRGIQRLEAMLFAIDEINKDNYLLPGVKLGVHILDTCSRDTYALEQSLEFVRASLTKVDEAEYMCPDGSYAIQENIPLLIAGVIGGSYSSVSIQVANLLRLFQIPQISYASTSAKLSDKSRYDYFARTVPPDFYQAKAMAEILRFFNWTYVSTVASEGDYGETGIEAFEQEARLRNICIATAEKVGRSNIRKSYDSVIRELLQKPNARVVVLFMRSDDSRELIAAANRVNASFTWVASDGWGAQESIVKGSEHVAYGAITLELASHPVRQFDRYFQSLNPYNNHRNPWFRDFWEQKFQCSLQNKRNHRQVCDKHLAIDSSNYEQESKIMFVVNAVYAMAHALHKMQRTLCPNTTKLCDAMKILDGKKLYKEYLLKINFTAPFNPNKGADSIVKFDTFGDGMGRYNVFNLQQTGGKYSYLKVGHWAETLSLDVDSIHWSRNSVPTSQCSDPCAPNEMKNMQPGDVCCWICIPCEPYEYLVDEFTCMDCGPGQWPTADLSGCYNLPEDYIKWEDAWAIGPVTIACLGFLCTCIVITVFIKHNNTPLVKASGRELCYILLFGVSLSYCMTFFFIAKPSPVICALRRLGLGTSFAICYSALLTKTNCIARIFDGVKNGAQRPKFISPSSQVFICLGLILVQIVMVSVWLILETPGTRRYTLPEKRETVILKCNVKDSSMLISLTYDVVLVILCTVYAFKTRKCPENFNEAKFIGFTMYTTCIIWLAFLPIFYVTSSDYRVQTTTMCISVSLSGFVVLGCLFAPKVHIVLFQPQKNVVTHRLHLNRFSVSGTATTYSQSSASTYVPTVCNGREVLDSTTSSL
- TEST_PROTOCOL: mGlu3 Ca2+ flux assay
- RUN_CONDITIONS: NAM, glutamate EC80; >10,000 = decrease without plateau; >30,000 = no measurable activity
pIC50: −log10 of the molar value.
Rule: pIC50 under 6 gives Condition not met, otherwise Condition met.

The examples below pair each entry with its known result.
O=c1cc(OCCOc2ccc(Cl)cc2)ccn1-c1ccc(F)cc1
Condition met
O=c1cc(OCCOc2cccc(Cl)n2)ccn1-c1ccc(F)cc1
Condition not met
O=c1cc(OCCOc2cc(Cl)ccn2)ccn1-c1ccc(F)cc1
Condition met

Would you say O=c1cc(OCCOc2ccccc2)ccn1-c1cncc(F)c1 shows pIC50 at minimum 6?
Condition not met

Has O=c1nc(OCCOc2ccccc2)ccn1-c1ccc(F)c(F)c1 a recorded pIC50 greater than or equal to 6?
Condition met

Say whether O=c1cc(OCCOc2ccccc2Cl)ccn1-c1ccc(F)cc1 shows pIC50 of 6 or more.
Condition not met
